Test system: SNK-6 (IL-2 2.5 ng/mL);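 note: normalised to DMSO-only wells as negative and benzethonium chloride as positive control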
Experiment: percent inhibition of viability; higher = more inhibition
Details: 72 h; 10000 nM
measurement-name: percent inhibition of viability (%)

[[record]]
compound = "COCC[n+]1c2c(n(Cc3cnccn3)c1C)C(=O)c1ccccc1C2=O [YM155] (max concentration tested 10000 nM)"
units_text = "%"
recorded_measurement = 100

[[record]]
compound = "CCn1c(=O)c(-c2cc[nH]n2)cc2c(C)nc(N)nc21 [Voxtalisib] (max concentration tested 10000 nM)"
units_text = "%"
recorded_measurement = 72.2

[[record]]
compound = "COc1cc(C(=O)O)ccc1NC(=O)[C@@H]1N[C@@H](CC(C)(C)C)[C@](C#N)(c2ccc(Cl)cc2F)[C@H]1c1cccc(Cl)c1F [RG7388] (max concentration tested 10000 nM)"
units_text = "%"
recorded_measurement = 92.7

[[record]]
compound = "Nc1ncn([C@@H]2O[C@H](CO)[C@@H](O)[C@H]2O)c(=O)n1 [Azacitidine] (max concentration tested 10000 nM)"
units_text = "%"
recorded_measurement = 67.8

[[record]]
compound = "O=C(/C=C/c1cccc(S(=O)(=O)Nc2ccccc2)c1)NO [Belinostat] (max concentration tested 10000 nM)"
units_text = "%"
recorded_measurement = 101

[[record]]
compound = "Nc1nc2[nH]cnc2c(=S)[nH]1 [Thioguanine] (max concentration tested 10000 nM)"
units_text = "%"
recorded_measurement = 96.7

[[record]]
compound = "Nc1nc(N)c2nc(-c3cccc(O)c3)c(-c3cccc(O)c3)nc2n1 [TG100-115] (max concentration tested 10000 nM)"
units_text = "%"
recorded_measurement = 39

[[record]]
compound = "CNC(=O)c1ccc(N2C(=S)N(c3cnc(C#N)c(C(F)(F)F)c3)C(=O)C23CCC3)cc1F [ARN 509] (max concentration tested 10000 nM)"
units_text = "%"
recorded_measurement = 24.3

[[record]]
compound = "COc1c(C)cnc(Cn2cnc3c(Cl)nc(N)nc32)c1C [BIIB021] (max concentration tested 10000 nM)"
units_text = "%"
recorded_measurement = 90.3

[[record]]
compound = "CC(C)(C)c1cnc(CSc2cnc(NC(=O)C3CCNCC3)s2)o1 [SNS-032] (max concentration tested 10000 nM)"
units_text = "%"
recorded_measurement = 38

[[record]]
compound = "O=C(Nc1cccc(Nc2ncc(Br)c(NCCc3cnc[nH]3)n2)c1)N1CCCC1 [BX-912] (max concentration tested 10000 nM)"
units_text = "%"
recorded_measurement = 84.7

[[record]]
compound = "Oc1ncnc2[nH]ncc12 [Allopurinol] (max concentration tested 10000 nM)"
units_text = "%"
recorded_measurement = 5.06

[[record]]
compound = "FC(F)c1nc2ccccc2n1-c1nc(N2CCOCC2)nc(N2CCOCC2)n1 [ZSTK474] (max concentration tested 10000 nM)"
units_text = "%"
recorded_measurement = 58.6

[[record]]
compound = "CN1CCN(c2ccc3nc(-c4c(N)c5c(F)cccc5[nH]c4=O)[nH]c3c2)CC1 [Dovitinib] (max concentration tested 10000 nM)"
units_text = "%"
recorded_measurement = -35.3

[[record]]
compound = "CC[C@H](Nc1ncnc2[nH]cnc12)c1nc2cccc(F)c2c(=O)n1-c1ccccc1 [Idelalisib] (max concentration tested 10000 nM)"
units_text = "%"
recorded_measurement = 57.8

[[record]]
compound = "COc1cc2nccc(Oc3ccc(NC(=O)Nc4cc(C)on4)c(Cl)c3)c2cc1OC [Tivozanib] (max concentration tested 10000 nM)"
units_text = "%"
recorded_measurement = 65.3

[[record]]
compound = "O=c1[nH]cc(F)c(=O)[nH]1 [Fluorouracil] (max concentration tested 10000 nM)"
units_text = "%"
recorded_measurement = 86.7

[[record]]
compound = "CN1CCC(CNc2ccc3ncc(-c4cccc(OC(F)(F)F)c4)n3n2)CC1 [SGI-1776] (max concentration tested 10000 nM)"
units_text = "%"
recorded_measurement = 101


Recorded values, source the supplement of paper PMC5908809.
